# Test system: Staphylococcus aureus
# experimental_details: Antibacterial activity against vancomycin A-resistant Staphylococcus aureus VRS2
# Type: functional
test_readout: MIC (µg/mL)

1) CN[C@H](CC(C)C)C(=O)N[C@H]1C(=O)N[C@@H](CC(N)=O)C(=O)N[C@H]2C(=O)N[C@H]3C(=O)N[C@H](C(=O)N[C@H](C(=O)O)c4cc(O)cc(O)c4-c4cc3ccc4O)[C@H](O)c3ccc(c(-c4ccccc4)c3)Oc3cc2cc(c3O[C@@H]2O[C@H](CO)[C@@H](O)[C@H](O)[C@H]2O[C@H]2C[C@](C)(N)[C@H](O)[C@H](C)O2)Oc2ccc(cc2Cl)[C@H]1O ... 64
2) C/C=C/c1cc2ccc1Oc1cc3cc(c1O[C@@H]1O[C@H](CO)[C@@H](O)[C@H](O)[C@H]1O[C@H]1C[C@](C)(N)[C@H](O)[C@H](C)O1)Oc1ccc(cc1/C=C/C)[C@@H](O)[C@@H](NC(=O)[C@@H](CC(C)C)NC)C(=O)N[C@@H](CC(N)=O)C(=O)N[C@H]3C(=O)N[C@H]1C(=O)N[C@H](C(=O)N[C@H](C(=O)O)c3cc(O)cc(O)c3-c3cc1ccc3O)[C@@H]2O ... 64

###

This listing pairs compounds with measured MIC.
# System: Staphylococcus aureus
# experimental_details: Antibacterial activity against methicillin-resistant vancomycin-susceptible Staphylococcus aureus SR-3637
# Format: functional
# conditions: SR3637
test_readout: MIC (µg/mL)

1) CN[C@H](CC(C)C)C(=O)N[C@H]1C(=O)N[C@@H](CC(N)=O)C(=O)N[C@H]2C(=O)N[C@H]3C(=O)N[C@H](C(=O)N[C@H](C(=O)O)c4cc(O)cc(O)c4-c4cc3ccc4O)[C@H](O)c3ccc(c(/C=C/c4ccc(C(F)(F)F)cc4)c3)Oc3cc2cc(c3O[C@@H]2O[C@H](CO)[C@@H](O)[C@H](O)[C@H]2O[C@H]2C[C@](C)(N)[C@H](O)[C@H](C)O2)Oc2ccc(cc2Cl)[C@H]1O ... 2
2) CN[C@H](CC(C)C)C(=O)N[C@H]1C(=O)N[C@@H](CC(N)=O)C(=O)N[C@H]2C(=O)N[C@H]3C(=O)N[C@H](C(=O)N[C@H](C(=O)O)c4cc(O)cc(O)c4-c4cc3ccc4O)[C@H](O)c3ccc(c(/C=C/c4ccc(OC)cc4)c3)Oc3cc2cc(c3O[C@@H]2O[C@H](CO)[C@@H](O)[C@H](O)[C@H]2O[C@H]2C[C@](C)(N)[C@H](O)[C@H](C)O2)Oc2ccc(cc2Cl)[C@H]1O ... 2

###

# Test system: Staphylococcus aureus
# experimental_details: Antibacterial activity against vancomycin A-resistant Staphylococcus aureus VRS2
# Type: functional
Catalogue of compounds with associated MIC
test_readout: MIC

1) CN[C@H](CC(C)C)C(=O)N[C@H]1C(=O)N[C@@H](CC(N)=O)C(=O)N[C@H]2C(=O)N[C@H]3C(=O)N[C@H](C(=O)N[C@H](C(=O)O)c4cc(O)cc(O)c4-c4cc3ccc4O)[C@H](O)c3ccc(c(Cl)c3)Oc3cc2cc(c3O[C@@H]2O[C@H](CO)[C@@H](O)[C@H](O)[C@H]2O[C@H]2C[C@](C)(N)[C@H](O)[C@H](C)O2)Oc2ccc(cc2Cl)[C@H]1O ... > 64 µg/mL
2) C/C=C/c1cc2ccc1Oc1cc3cc(c1O[C@@H]1O[C@H](CO)[C@@H](O)[C@H](O)[C@H]1O[C@H]1C[C@](C)(N)[C@H](O)[C@H](C)O1)Oc1ccc(cc1/C=C/CCCCCC)[C@@H](O)[C@@H]1NC(=O)[C@H](NC(=O)[C@@H]3NC(=O)[C@H](CC(N)=O)NC(=O)[C@H](NC(=O)[C@@H](CC(C)C)NC)[C@@H]2O)c2ccc(O)c(c2)-c2c(O)cc(O)cc2[C@@H](C(=O)O)NC1=O ... > 64 µg/mL
3) CN[C@H](CC(C)C)C(=O)N[C@H]1C(=O)N[C@@H](CC(N)=O)C(=O)N[C@H]2C(=O)N[C@H]3C(=O)N[C@H](C(=O)N[C@H](C(=O)O)c4cc(O)cc(O)c4-c4cc3ccc4O)[C@H](O)c3ccc(c(-c4ccc(OC)cc4)c3)Oc3cc2cc(c3O[C@@H]2O[C@H](CO)[C@@H](O)[C@H](O)[C@H]2O[C@H]2C[C@](C)(N)[C@H](O)[C@H](C)O2)Oc2ccc(cc2Cl)[C@H]1O ... > 64 µg/mL

###

Below is a list of entries, each paired with its recorded MIC value.
# Tested on: Staphylococcus aureus
# experimental_details: Antibacterial activity against methicillin-resistant vancomycin-susceptible Staphylococcus aureus SR-3637
# Format: functional
# conditions: SR3637
test_readout: MIC (µg/mL)

1. CN[C@H](CC(C)C)C(=O)N[C@H]1C(=O)N[C@@H](CC(N)=O)C(=O)N[C@H]2C(=O)N[C@H]3C(=O)N[C@H](C(=O)N[C@H](C(=O)O)c4cc(O)cc(O)c4-c4cc3ccc4O)[C@H](O)c3ccc(c(/C=C/CCCc4ccccc4)c3)Oc3cc2cc(c3O[C@@H]2O[C@H](CO)[C@@H](O)[C@H](O)[C@H]2O[C@H]2C[C@](C)(N)[C@H](O)[C@H](C)O2)Oc2ccc(cc2Cl)[C@H]1O ... 2
2. C/C=C/c1cc2ccc1Oc1cc3cc(c1O[C@@H]1O[C@H](CO)[C@@H](O)[C@H](O)[C@H]1O[C@H]1C[C@](C)(N)[C@H](O)[C@H](C)O1)Oc1ccc(cc1/C=C/C)[C@@H](O)[C@@H](NC(=O)[C@@H](CC(C)C)NC)C(=O)N[C@@H](CC(N)=O)C(=O)N[C@H]3C(=O)N[C@H]1C(=O)N[C@H](C(=O)N[C@H](C(=O)O)c3cc(O)cc(O)c3-c3cc1ccc3O)[C@@H]2O ... 2
3. CCCCCC/C=C/c1cc2ccc1Oc1cc3cc(c1O[C@@H]1O[C@H](CO)[C@@H](O)[C@H](O)[C@H]1O[C@H]1C[C@](C)(N)[C@H](O)[C@H](C)O1)Oc1ccc(cc1/C=C/CCCCCC)[C@@H](O)[C@@H](NC(=O)[C@@H](CC(C)C)NC)C(=O)N[C@@H](CC(N)=O)C(=O)N[C@H]3C(=O)N[C@H]1C(=O)N[C@H](C(=O)N[C@H](C(=O)O)c3cc(O)cc(O)c3-c3cc1ccc3O)[C@@H]2O ... 64
4. CN[C@H](CC(C)C)C(=O)N[C@H]1C(=O)N[C@@H](CC(N)=O)C(=O)N[C@H]2C(=O)N[C@H]3C(=O)N[C@H](C(=O)N[C@H](C(=O)O)c4cc(O)cc(O)c4-c4cc3ccc4O)[C@H](O)c3ccc(c(-c4ccccc4OC)c3)Oc3cc2cc(c3O[C@@H]2O[C@H](CO)[C@@H](O)[C@H](O)[C@H]2O[C@H]2C[C@](C)(N)[C@H](O)[C@H](C)O2)Oc2ccc(cc2Cl)[C@H]1O ... 8
5. CN[C@H](CC(C)C)C(=O)N[C@H]1C(=O)N[C@@H](CC(N)=O)C(=O)N[C@H]2C(=O)N[C@H]3C(=O)N[C@H](C(=O)N[C@H](C(=O)O)c4cc(O)cc(O)c4-c4cc3ccc4O)[C@H](O)c3ccc(c(/C=C/CCCc4ccccc4)c3)Oc3cc2cc(c3O[C@@H]2O[C@H](CO)[C@@H](O)[C@H](O)[C@H]2O[C@H]2C[C@](C)(N)[C@H](O)[C@H](C)O2)Oc2ccc(cc2/C=C/CCCc2ccccc2)[C@H]1O ... 64
6. CN[C@H](CC(C)C)C(=O)N[C@H]1C(=O)N[C@@H](CC(N)=O)C(=O)N[C@H]2C(=O)N[C@H]3C(=O)N[C@H](C(=O)N[C@H](C(=O)O)c4cc(O)cc(O)c4-c4cc3ccc4O)[C@H](O)c3ccc(c(-c4ccccc4)c3)Oc3cc2cc(c3O[C@@H]2O[C@H](CO)[C@@H](O)[C@H](O)[C@H]2O[C@H]2C[C@](C)(N)[C@H](O)[C@H](C)O2)Oc2ccc(cc2Cl)[C@H]1O ... 4

###

# Test system: Enterococcus faecalis
# experimental_details: Antibacterial activity against vancomycin B-resistant Enterococcus faecalis SR-23630
# Type: functional
# conditions: SR23630
test_readout: MIC

1. C/C=C/c1cc2ccc1Oc1cc3cc(c1O[C@@H]1O[C@H](CO)[C@@H](O)[C@H](O)[C@H]1O[C@H]1C[C@](C)(N)[C@H](O)[C@H](C)O1)Oc1ccc(cc1/C=C/CCCCCC)[C@@H](O)[C@@H]1NC(=O)[C@H](NC(=O)[C@@H]3NC(=O)[C@H](CC(N)=O)NC(=O)[C@H](NC(=O)[C@@H](CC(C)C)NC)[C@@H]2O)c2ccc(O)c(c2)-c2c(O)cc(O)cc2[C@@H](C(=O)O)NC1=O ... > 64 µg/mL
2. CN[C@H](CC(C)C)C(=O)N[C@H]1C(=O)N[C@@H](CC(N)=O)C(=O)N[C@H]2C(=O)N[C@H]3C(=O)N[C@H](C(=O)N[C@H](C(=O)O)c4cc(O)cc(O)c4-c4cc3ccc4O)[C@H](O)c3ccc(c(/C=C/CCCc4ccccc4)c3)Oc3cc2cc(c3O[C@@H]2O[C@H](CO)[C@@H](O)[C@H](O)[C@H]2O[C@H]2C[C@](C)(N)[C@H](O)[C@H](C)O2)Oc2ccc(cc2Cl)[C@H]1O ... > 64 µg/mL
3. CN[C@H](CC(C)C)C(=O)N[C@H]1C(=O)N[C@@H](CC(N)=O)C(=O)N[C@H]2C(=O)N[C@H]3C(=O)N[C@H](C(=O)N[C@H](C(=O)O)c4cc(O)cc(O)c4-c4cc3ccc4O)[C@H](O)c3ccc(c(-c4ccccc4)c3)Oc3cc2cc(c3O[C@@H]2O[C@H](CO)[C@@H](O)[C@H](O)[C@H]2O[C@H]2C[C@](C)(N)[C@H](O)[C@H](C)O2)Oc2ccc(cc2Cl)[C@H]1O ... 64 µg/mL
